Listing: Cell Viability of selected molecules
- System: Colon cancer organoid
- assay.remarks: Optimized Dual-Glo assay to identify co-culture induced drug vulnerabilities using donated chemical probes and chemogenomics kinase set in O06 CRC organoid and F06 CAF mono and co-culture. […] Cell viability is reported both mono and co-culture models.
- Type: functional, Homo sapiens
- Parameters: dose or concentration left out as unconfirmed
- protocol.conditions: Culture type Mono-Culture; Transduced with Renilla-dsRed lentivirus
Give just the number in %; leave the unit off.

CCn1cc(-c2ccnc3[nH]c(-c4cccc(CN(C)C)c4)cc23)c(-c2ccc(NC(=O)N(C)C)cc2)n1 = 93.7927
CC(=O)C1=C(C)N(c2cccc(C(F)(F)F)c2)C(=O)N[C@@H]1c1ccc(C#N)nc1 = 89.9312
Cc1c(NC(=O)COc2ccc(Cl)cc2C(=O)c2cc(F)cc(C(F)(F)F)c2)ccc(C(=O)O)c1F = 102.946
CC[C@@H]1CN(C(=O)NCC(F)(F)F)C[C@@H]1c1cnc2cnc3[nH]ccc3n12 = 90.1732
Cc1cc(C)cc([C@@H]2c3cc(C)ccc3NC(=O)CN2C(=O)c2ccc(Br)s2)c1 = 545.831
CC(C)(C#Cc1ccc(NC(=O)COc2ccccc2C(=O)c2ccccc2)c(Cl)c1)C(=O)O = 109.263
CC(=O)N1CCC(c2ccc(C(=O)NC3=NCCN3)cc2C(F)(F)F)CC1 = 104.942
O=C(NCCN1CCOCC1)c1ccc2c(c1)C(=O)c1ccc(Nc3ccc(F)c(NC(=O)c4ccccc4)c3)cc1CC2 = 83.7797

Query block: // query Cell Viability value for entry Cc1cc(CN)cc(C)c1-c1ncn(C)c1-c1ccnc2cc(F)ccc12.Cl
Result block: 129.63

Query block: // query Cell Viability value for entry CCCCN(Cc1ccccc1)C(=O)c1ccc(S(=O)(=O)Nc2ccccc2)cc1
Result block: 112.912

Query block: // query Cell Viability value for entry CN1CCN(c2ccnc(NCCc3ccccc3)n2)CC1 [TP-040n]
Result block: 134.56

Query block: // query Cell Viability value for entry CCn1c(-c2nc3cc(C(=O)N4CCCC(N)C4)ccc3n2C)cc2ccccc21.Cl (stereo not given)
Result block: 112.415

Query block: // query Cell Viability value for entry CN(C)C(=O)Cn1cc(-c2ccc(-c3cncc4ccccc34)cc2)cn1
Result block: 24.5354

Query block: // query Cell Viability value for entry CNC(=O)c1cc(C(=O)N[C@H]2[C@@H]3COC[C@@H]32)cc2c1O[C@@H](CF)[C@@H]2c1ccccc1
Result block: 119.155

Query block: // query Cell Viability value for entry CC(C)NC(=O)N1CC[C@H](NC2=Nc3cc(F)ccc3N(CC(F)F)c3ccc(Cl)cc32)C1
Result block: 94.1375
